tested on: MATIN; experiment: Pre-emergence herbicidal action against MATIN; type: in vivo, Matricaria inodora; conditions: dosage 20 g/ha
measured parameter: Pre-emergence action against MATIN in %
Answer shape: numeric part, then the unit.

compound | Pre-emergence action against MATIN in %
Cc1nnc(NC(=O)c2ccc(C(F)F)c(C(=O)NC(C)C)c2Cl)o1 [Example 6-260] | 100%
CCNC(=O)c1c(C(F)(F)F)ccc(C(=O)Nc2nnnn2CC)c1OC [Example 2-57] | 90%

Quick one: give measured Pre-emergence action against MATIN in % for CCn1nnnc1NC(=O)c1ccc(C(F)(F)F)c(C(=O)NCC(F)F)c1Cl [Example 2-134]
90%
